Values compiled from patent US8637510B2.

molecular target: human alpha 7-wt nAChR (Homo sapiens, UniProt P36544); construct: expressed in transfected cells; experiment: Ca2+ flux imaging (FDSS) (Protocol B); assay type: cell-based; conditions: efficacy of 100 μM choline defined as 100% in the absence of a PAM; read-out: a7-PAM-G_[33]_Eff_Curve_FI % Efficacy
Sequence (P36544 23-502): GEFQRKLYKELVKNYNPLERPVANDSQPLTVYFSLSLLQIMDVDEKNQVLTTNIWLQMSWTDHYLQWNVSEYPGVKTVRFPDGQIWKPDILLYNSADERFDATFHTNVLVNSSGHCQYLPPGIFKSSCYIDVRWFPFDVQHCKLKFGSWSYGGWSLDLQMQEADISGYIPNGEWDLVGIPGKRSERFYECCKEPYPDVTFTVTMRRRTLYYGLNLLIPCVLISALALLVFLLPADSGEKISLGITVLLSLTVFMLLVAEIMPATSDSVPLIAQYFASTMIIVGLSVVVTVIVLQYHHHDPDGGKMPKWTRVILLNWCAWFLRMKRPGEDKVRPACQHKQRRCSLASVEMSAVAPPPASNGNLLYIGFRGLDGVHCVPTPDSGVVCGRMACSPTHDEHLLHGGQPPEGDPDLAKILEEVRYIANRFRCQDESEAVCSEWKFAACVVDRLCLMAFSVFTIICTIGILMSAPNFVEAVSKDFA
Class field: derived from Emax; ranges Low: < 500%; Mid: ≥ 500% and < 700%; High: ≥ 700%

                                    molecule  classification
 0  Cc1ccc(-c2sc(N3C[C@@H](C)O[C@@H](C)C3)nc2CNC(=O)c2cccc(F)c2)cn1 [Compound 125]             Low
 1  Cc1cc(-c2sc(N3C[C@@H](C)O[C@@H](C)C3)nc2CNC(=O)C2CC2)cc(C2CC2)n1 [Compound 109]            High
 2  Cc1cc(-c2sc(N3C[C@@H](C)O[C@@H](C)C3)nc2CNC(=O)CC2CC2)c(C)cn1 [Compound 97]             Low
 3  Cc1cc(-c2sc(N3C[C@@H](C)O[C@@H](C)C3)nc2CNC(=O)c2ccc(C(F)(F)F)cc2)cc(C)n1 [Compound 23]             Mid
 4  Cc1nocc1C(=O)NCc1nc(N2CCOCC2)sc1-c1ccncc1 [Compound 114]             Low
 5  Cc1cc(-c2sc(N3C[C@@H](C)O[C@@H](C)C3)nc2CNC(=O)CC(C)C)cc(C2CC2)n1 [Compound 110]            High
 6  Cc1cc(-c2sc(N3CCOC(C)C3)nc2CNC(=O)c2ccc(F)cc2C)cc(C)n1 (single isomer, unassigned) [Compound 77]            High
 7  Cc1cc(F)ccc1C(=O)NCc1nc(N2C[C@@H](C)O[C@@H](C)C2)sc1-c1ccncc1 [Compound 102]            High
 8  Cc1cc(-c2sc(N3C[C@@H](C)O[C@@H](C)C3)nc2CNC(=O)c2c(C)noc2C(F)(F)F)cc(C)n1 [Compound 163]             Low
 9  Cc1cc(-c2sc(N3C[C@@H](C)O[C@@H](C)C3)nc2CNC(=O)c2conc2C)ccn1 [Compound 86]             Low
10  Cc1cc(-c2sc(N3C[C@@H](C)O[C@@H](C)C3)nc2CNC(=O)c2cccc(Cl)c2)cc(C)n1 [Compound 9]             Mid
11  Cc1cc(-c2sc(N3C[C@@H](C)O[C@@H](C)C3)nc2CNC(=O)C2CCC2)ccn1 [Compound 89]             Mid
12  Cc1cc(-c2sc(N3C[C@@H](C)O[C@@H](C)C3)nc2CNC(=O)c2onc(C)c2C)cc(C)n1 [Compound 171]             Mid
